Tested on: L929: NCTC clone 929, mouse fibroblast cell line
Test: Cytotoxicity in normal mammalian cells (L929)
Type: cell-based
Details: L929, 24 h, 0.01-100 μM, read-out: IC50 of compounds in various normal mammalian cells
measurement-label: IC50 (µM)
Quick note: give the figure in µM, leave out the unit.

Problem: Provide L929: NCTC clone 929, mouse fibroblast cell line IC50 reading for COc1ccc(-c2coc3cc(OCC4CS4)ccc3c2=O)c(OC)c1 (centres unmarked) .
Result: 91.9

====

Experiment: Pharmacokinetic study after IV injection in rats
Assay type: in vivo
Details: male, Sprague-Dawley, plasma, rat, 10 mg/kg
measurement-label: Vd (L)
Quick note: give the figure in L, leave out the unit.

compound	unit-of-measurement	Vd
Cc1cc(=O)c2c(O)cc(OCC3CS3)cc2o1 (centres unmarked)	L	1.05

Continue with the next compound.
Problem: Look up and state reported Vd for COc1ccc(-c2coc3cc(OCC4CS4)ccc3c2=O)c(OC)c1 (centres unmarked)
Result: 4.13

====

Tested on: HFL-1: human embryonic lung cell line
Assay: Cytotoxicity in normal mammalian cells (HFL-1)
Type: cell-based
Settings: HFL1, HFL-1, 24 h, 0.01-100 μM, read-out: IC50 of compounds in various normal mammalian cells
Catalogue of compounds with associated IC50

compound	measurement-label	observed-measurement
Cc1cc(=O)c2c(O)cc(OCC3CS3)cc2o1 (centres unmarked)	IC50	> 100 µM

Continue with the next compound.
Problem: Look up and state reported IC50 for COc1ccc(-c2coc3cc(OCC4CS4)ccc3c2=O)c(OC)c1 (centres unmarked)
Result: 94.5 µM

====

Catalogue of molecules with associated C0
Assay: Pharmacokinetic study after IV injection in rats
Assay type: in vivo
Details: male, Sprague-Dawley, plasma, rat, 2 mg/kg
Your reply should be a number followed by the unit it is expressed in.

Problem: Look up and state reported C0 for Cc1cc(=O)c2c(O)cc(OCC3CS3)cc2o1 (centres unmarked) [J2]
Result: 1.64 µg/mL

Problem: Look up and state reported C0 for COc1ccc(-c2coc3cc(OCC4CS4)ccc3c2=O)c(OC)c1 (centres unmarked) [NA49]
Result: 0.72 µg/mL

====

Experiment: Pharmacokinetic study after IV injection in rats
Format: in vivo
Settings: male, Sprague-Dawley, plasma, rat, 10 mg/kg
measurement-label: half-life (h)
Quick note: give the figure in h, leave out the unit.

compound	unit-of-measurement	half-life
Cc1cc(=O)c2c(O)cc(OCC3CS3)cc2o1 (centres unmarked) [J2]	h	0.45

Continue with the next compound.
Problem: Look up and state reported half-life for COc1ccc(-c2coc3cc(OCC4CS4)ccc3c2=O)c(OC)c1 (centres unmarked) [NA49]
Result: 1.55

====

Experiment: Pharmacokinetic study after IV injection in rats
Assay type: in vivo
Settings: male, Sprague-Dawley, plasma, rat, 2 mg/kg
measurement-label: half-life (min)
Quick note: give the figure in min, leave out the unit.

Problem: Look up and state reported half-life for COc1ccc(-c2coc3cc(OCC4CS4)ccc3c2=O)c(OC)c1 (centres unmarked) [NA49]
Result: 84

Problem: Look up and state reported half-life for Cc1cc(=O)c2c(O)cc(OCC3CS3)cc2o1 (centres unmarked) [J2]
Result: 11.4

====

Catalogue of compounds with associated Factor (revertant colonies of treated plate/vehicle control plate)
Test system: Salmonella typhimurium TA98
Details: TA98, without S-9 mix; J2 40, NA49 200, positive controls 1-2 μg/plate

compound	observed-measurement
O=[N+]([O-])c1ccc2c(c1)Cc1ccccc1-2 [2-nitrofluorene, reference compound]	28.9
COc1ccc(-c2coc3cc(OCC4CS4)ccc3c2=O)c(OC)c1 (stereo not shown) [NA49]	1.2
Cc1cc(=O)c2c(O)cc(OCC3CS3)cc2o1 (stereo not shown) [J2]	3.6

Continue with the next compound.
Problem: Provide Salmonella typhimurium TA98 Factor (revertant colonies of treated plate/vehicle control plate) reading for [N-]=[N+]=[N-].[Na+] [sodium azide, reference compound] .
Result: 4.1
